TEST_SYSTEM: GLP-1 receptor (human (printed as hGLP1R), UniProt P43220 24-463)
ASSAY_TEXT: cell-based or functional assay
Starred links: 1 amine or outer side, 2 acyl side, 3 side chain; linkers in the order of their positions; H or OH if unused. Non-standard residues stand in square brackets, D forms with d. Groups on a side chain read outwards from the residue. No end group written: not given here. *: point of attachment. C20 diacid = O=C(O)CCCCCCCCCCCCCCCCCCC(=O)*; C18 diacid = O=C(O)CCCCCCCCCCCCCCCCC(=O)*; γGlu = O=C(O)[C@H](CCC(=O)[*:2])N[*:1]; εLys = N[C@@H](CCCCN[*:1])C(=O)[*:2]; AEEA = NCCOCCOCC(=O)O; Aib = CC(C)(N)C(=O)O
QUANTITY_NAME: EC50 hGLP1R 100% hP (CreLuc) (nM)
Answers are plain numbers, in nM.

BINDER	UNITS_TEXT	EC50 hGLP1R 100% hP (CreLuc)
Y[Aib]EGTFTSDYSI[Aib]LEKQAE[Aib]AFVEWLIK([AEEA-AEEA-γGlu-γGlu-γGlu-γGlu-C18 diacid])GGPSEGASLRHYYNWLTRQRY-NH2 (also: TFA salt) [Compound 251]	nM	7.16
YXEGTFTSDYSIXLEKQAQXAFVEWLIKGGPSEGESLRHYYNWLTRQRY (Aib at 2, 13, 20; K28 side chain carries C20DA-gGlu-gGlu-gGlu-gGlu-gGlu-gGlu-eLys; C-terminal amide) [Compound 237]	nM	3.11
Y[Aib]EGTFTSDYSI[Aib]LE[Aib]QAQ[Aib]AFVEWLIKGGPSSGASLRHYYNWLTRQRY-NH2 (not fully specified (residue 28); also: TFA salt) [Compound 199]	nM	13.8

Dear reader, for each entry below, please note its EC50 hGLP1R 100% hP (CreLuc).
1. Y[Aib]EGTFTSDYSI[Aib]LEKQAQ[Aib]EFVQWLIK([γGlu-γGlu-γGlu-γGlu-γGlu-γGlu-C20 diacid])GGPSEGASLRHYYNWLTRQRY-NH2 (also: TFA salt) [Compound 185]
2. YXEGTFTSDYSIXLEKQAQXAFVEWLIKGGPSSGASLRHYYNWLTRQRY (Aib at 2, 13, 20; K28 side chain carries C20DA-gGlu-gGlu-gGlu-gGlu-gGlu-gGlu-eLys; C-terminal amide) [Compound 221]
3. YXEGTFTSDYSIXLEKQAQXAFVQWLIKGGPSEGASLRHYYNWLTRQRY (Aib at 2, 13, 20; K28 side chain carries C18DA-gGlu-gGlu-gGlu-gGlu-gGlu-OEG-OEG; C-terminal amide) [Compound 246]
4. Y[Aib]EGTFTSDYSI[Aib]LEEQAQ[Aib]AFVEWLIK([εLys-γGlu-γGlu-γGlu-γGlu-γGlu-C20 diacid])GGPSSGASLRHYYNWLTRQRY-NH2 (also: TFA salt) [Compound 181]
5. YXEGTFTSDYSIXLEKQAQXAFVEWLIKGGPSSGASLRHYYNXLTRQRY (Aib at 2, 13, 20, 43; K28 side chain carries C20DA-gGlu-gGlu-gGlu-gGlu-gGlu-gGlu-eLys; C-terminal amide) [Compound 218]
6. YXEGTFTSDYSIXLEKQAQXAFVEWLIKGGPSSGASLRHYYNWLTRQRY (Aib at 2, 13, 20; K28 side chain carries C20DA-gGlu-gGlu-gGlu-gGlu-gGlu; C-terminal amide) [Compound 238]
7. Y[Aib]EGTFTSDYSI[Aib]LEKQAQ[Aib]EFVEWLIK([AEEA-AEEA-γGlu-γGlu-γGlu-γGlu-C20 diacid])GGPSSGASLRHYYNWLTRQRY-NH2 (also: TFA salt) [Compound 205]

Response:
1. 11
2. 2.23
3. 2.7
4. 3.23
5. 3.3
6. 2.55
7. 12.3

Hello, the source for this data is patent US20240247080A1, in case you need it.
